Sourced from patent US20250236608A1

# Tested Target: EGFR (d746-750) (Homo sapiens (Human), UniProt P00533, DEL746-750)
# Sequence (P00533 other isoform, or with tags, fused parts or gaps del 1-694/del 746-750 limits assumed): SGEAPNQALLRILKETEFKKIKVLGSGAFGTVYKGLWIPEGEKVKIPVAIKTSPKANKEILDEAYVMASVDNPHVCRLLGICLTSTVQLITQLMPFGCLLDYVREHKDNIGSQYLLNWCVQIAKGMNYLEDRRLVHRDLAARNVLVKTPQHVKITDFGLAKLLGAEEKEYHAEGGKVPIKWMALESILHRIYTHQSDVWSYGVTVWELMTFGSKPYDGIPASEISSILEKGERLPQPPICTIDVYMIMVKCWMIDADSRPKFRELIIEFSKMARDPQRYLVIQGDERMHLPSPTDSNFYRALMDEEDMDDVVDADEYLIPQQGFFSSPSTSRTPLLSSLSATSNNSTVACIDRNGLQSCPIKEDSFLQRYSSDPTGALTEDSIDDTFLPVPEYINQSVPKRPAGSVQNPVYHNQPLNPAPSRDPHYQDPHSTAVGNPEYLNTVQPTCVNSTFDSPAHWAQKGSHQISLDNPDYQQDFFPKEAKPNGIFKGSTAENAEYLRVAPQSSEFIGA
# Test Details: Biochemical EGFR inhibition assay, EGFR (d746-750)
# Test Settings: Caliper mobility shift; 1.0 mM ATP or ATP Km; read-out: Enz EGFR_Exon19-del746-750 IC50
Measurement Type: IC50 (nM)
Could you give me the number in nM? Just the number is fine.

compound="COc1cc2ncnc(-c3cn(C)nc3-c3ccccc3)c2cc1[C@H](C)O (single isomer, unassigned) [Example 116]" tested_target="EGFR (d746-750) (Homo sapiens (Human), UniProt P00533, DEL746-750)" recorded_number=1.1
compound="CCOc1cc2ncnc(-c3cn(C)nc3-c3ccccc3)c2cc1N1CCN(C)C[C@@H]1C [Example 174]" tested_target="EGFR (d746-750) (Homo sapiens (Human), UniProt P00533, DEL746-750)" recorded_number=2.3
compound="COc1cc2ncnc(-c3cn(C)nc3-c3ccccc3)c2cc1N1CC[C@@H](F)[C@H](O)C1 (single isomer, unassigned) [Example 173]" tested_target="EGFR (d746-750) (Homo sapiens (Human), UniProt P00533, DEL746-750)" recorded_number=3.6
compound="CCn1ncc(-c2ncnc3cc(-c4cnn(C)c4)ccc23)c1-c1ccccc1 [Example 495]" tested_target="EGFR (d746-750) (Homo sapiens (Human), UniProt P00533, DEL746-750)" recorded_number=2.3
compound="[2H]C([2H])([2H])N1CCN(C(=O)Nc2cc3c(-c4cn(C)nc4-c4ccccc4)ncnc3cc2OC)[C@@H](C)C1 [Example 181]" tested_target="EGFR (d746-750) (Homo sapiens (Human), UniProt P00533, DEL746-750)" recorded_number=2.7
compound="COCC1(C(=O)Nc2cc3c(-c4cn(C)nc4-c4ccccc4)ncnc3cc2OC)CCC1 [Example 214]" tested_target="EGFR (d746-750) (Homo sapiens (Human), UniProt P00533, DEL746-750)" recorded_number=0.9

Next compound, please.
Entry under test: COc1cc2ncnc(-c3cn(C)nc3-c3ccccc3)c2cc1N1CCN(C)C1=O [Example 176] . Its IC50 was 3
